% Remaining (1 h, 37° C.) by entry:
Assay: Mouse plasma stability protocol, up to 1 h (Examples 16-18)
Details: mouse plasma, 1 h, 37° C.
Note to self: number, then unit, no commentary.

Answered examples (5):
[
  {
    "compound": "CCc1c2c(nc3ccc(OC(=O)N4CCCCC4C(=O)N4CCC(CCn5ccc6cc(-n7c(O)nnc7-c7cc(C(C)C)c(O)cc7O)ccc65)CC4)cc13)-c1cc3c(c(=O)n1C2)COC(=O)[C@]3(O)CC (some centres unmarked) [SDC-TRAP-0215]",
    "experimentalEndpoint": "% Remaining (1 h, 37° C.)",
    "valueReported": "77.2%"
  },
  {
    "compound": "CCNC(=O)c1nnc(-c2cc(C(C)C)c(O)cc2O)n1-c1ccc(Oc2ccc(C(=O)N3CCC(N(C)C(=O)Oc4ccc5nc6c(c(CC)c5c4)Cn4c-6cc5c(c4=O)COC(=O)C5(O)CC)CC3)cc2)cc1 (centres unmarked) [SDC-TRAP-0180]",
    "experimentalEndpoint": "% Remaining (1 h, 37° C.)",
    "valueReported": "72.4%"
  },
  {
    "compound": "CCc1c2c(nc3ccc(OC(=O)N(C)CCOCCn4ccc5cc(-n6c(O)nnc6-c6cc(C(C)C)c(O)cc6O)ccc54)cc13)-c1cc3c(c(=O)n1C2)COC(=O)C3(O)CC (centres unmarked) [SDC-TRAP-0029]",
    "experimentalEndpoint": "% Remaining (1 h, 37° C.)",
    "valueReported": "47%"
  },
  {
    "compound": "CCNC(=O)c1nnc(-c2cc(C(C)C)c(O)cc2O)n1-c1ccc(Oc2ccc(C(=O)N3CCC(OC(=O)OC4(CC)C(=O)OCc5c4cc4n(c5=O)Cc5c-4nc4ccc(O)cc4c5CC)CC3)cc2)cc1 (centres unmarked) [SDC-TRAP-0203]",
    "experimentalEndpoint": "% Remaining (1 h, 37° C.)",
    "valueReported": "71.2%"
  },
  {
    "compound": "CCNC(=O)c1nnc(-c2cc(C(C)C)c(O)cc2O)n1-c1ccc(Oc2ccc(N(C)C(=O)Oc3ccc4nc5c(c(CC)c4c3)Cn3c-5cc4c(c3=O)COC(=O)[C@]4(O)CC)cc2)cc1 [SDC-TRAP-0145]",
    "experimentalEndpoint": "% Remaining (1 h, 37° C.)",
    "valueReported": "14.1%"
  }
]

Give % Remaining (1 h, 37° C.) for the following compound: CCNC(=O)c1nnc(-c2cc(C(C)C)c(O)cc2O)n1-c1ccc(OC2CCN(C(=O)C3CCN(C(=O)Oc4ccc5nc6c(c(CC)c5c4)Cn4c-6cc5c(c4=O)COC(=O)[C@]5(O)CC)C(C)C3)CC2)cc1 (some centres unmarked) [SDC-TRAP-0213]
74.7%

Identify the reported % Remaining (1 h, 37° C.) for the following entry. CCc1c2c(nc3ccc(O)cc13)-c1cc3c(c(=O)n1C2)COC(=O)C3(CC)OC(=O)CN1CCC(Cc2ccc(-n3c(O)nnc3-c3cc(C(C)C)c(O)cc3O)cc2)CC1 (centres unmarked) [SDC-TRAP-0071]
102%

----------
Test: Artificial membrane permeability assay (PAMPA)
Conditions: incubation 5 h, first table
Mass Retention less than 30% is rule met; Mass Retention greater than or equal to 30% is rule not met.

[
  {
    "molecule": "CCc1c2c(nc3ccc(O)cc13)-c1cc3c(c(=O)n1C2)COC(=O)[C@]3(O)CC [SN-38, reference compound]",
    "label": "rule not met"
  },
  {
    "molecule": "Cn1c(=O)c2c(ncn2C)n(C)c1=O",
    "label": "rule met"
  },
  {
    "molecule": "CC(C)c1cc(-c2nnc(O)n2-c2ccc3c(ccn3CCNC(=O)CCCC[C@@H]3SCC4NC(=O)NC43)c2)c(O)cc1O (stereo in doubt)",
    "label": "rule met"
  },
  {
    "molecule": "CC(C)c1cc(-c2nnc(O)n2-c2ccc3c(ccn3CCN(C)C(=O)CCCC(=O)Nc3cccc4c3CN(C3CCC(=O)NC3=O)C4=O)c2)c(O)cc1O (centres unmarked)",
    "label": "rule met"
  }
]

Next up:
Does the reported Mass Retention of the following molecule sit strictly below 30%? Nc1cccc2c1CN(C1CCC(=O)NC1=O)C2=O (centres unmarked) [Lenalidomide, lenalidomide, reference compound]
rule met

----------
Tested on: HER2
Experiment: HER2 degradation assay with BT-474 cell line (Example 12, FACS)
Format: cell-based, human
Details: BT-474 cells, overnight
experimentalEndpoint: IC50 (µM)
Expressed in µM, but write only the number.

Consider the worked cases shown below.
[
  {
    "chemSmiles": "CC(C)c1cc(C(=O)N2Cc3ccc(NC(=O)CCCc4nc5cc(N(CCCl)CCCl)ccc5n4C)cc3C2)c(O)cc1O",
    "valueReported": 0.289
  },
  {
    "chemSmiles": "CC(C)c1cc(-c2nnc(O)n2-c2ccc3c(ccn3CCOCCN(C)C(=O)CCCc3nc4cc(N(CCCl)CCCl)ccc4n3C)c2)c(O)cc1O",
    "valueReported": 4.74
  }
]

Moving on to the next molecule.
State its IC50: `CC(C)c1cc(-c2nnc(O)n2-c2ccc3c(ccn3CCN(C)C(=O)CCCc3nc4cc(N(CCCl)CCCl)ccc4n3C)c2)c(O)cc1O`
2.93

----------
Experiment: Solubility of SDC-TRAP-0063 (ganetespib placebo formulation, PEG-300)
Assay type: physicochemical
Settings: ganetespib placebo formulation, organic solvent or mixture, thermodynamic from solid, kinetic solubility in ganetespib placebo formulation; Lot6; 3 days
experimentalEndpoint: solubility at 3 days (µg/mL)
Supply the numeric figure in µg/mL, leaving out any unit text.

# return recorded solubility at 3 days for entry `CCc1c2c(nc3ccc(OC(=O)N4CCC(CCn5ccc6cc(-n7c(O)nnc7-c7cc(C(C)C)c(O)cc7O)ccc65)CC4)cc13)-c1cc3c(c(=O)n1C2)COC(=O)[C@]3(O)CC`
9680

----------
Experiment: Mouse plasma stability protocol, up to 1 h (Examples 16-18)
Details: mouse plasma; sum of both peaks
Rule: Mouse (10 μM) % Remaining 1 h (37° C.)* under 60% gives Not met, otherwise Met.

Worked cases, answers included:
[
  {
    "compound": "CCc1c2c(nc3ccc(OC(=O)N(C)CCOCCn4ccc5cc(-n6c(O)nnc6-c6cc(C(C)C)c(O)cc6O)ccc54)cc13)-c1cc3c(c(=O)n1C2)COC(=O)C3(O)CC (stereo not drawn) [SDC-TRAP-0029]",
    "label": "Not met"
  },
  {
    "compound": "CCc1c2c(nc3ccc(OC(=O)N4CCN(c5ccc(-n6c(O)nnc6-c6cc(C(C)C)c(O)cc6O)cc5)CC4)cc13)-c1cc3c(c(=O)n1C2)COC(=O)C3(O)CC (stereo not drawn) [SDC-TRAP-0045]",
    "label": "Not met"
  },
  {
    "compound": "CCc1c2c(nc3ccc(O)cc13)-c1cc3c(c(=O)n1C2)COC(=O)[C@]3(O)CC [SN-38, reference compound]",
    "label": "Met"
  },
  {
    "compound": "CCc1c2c(nc3ccc(O)cc13)-c1cc3c(c(=O)n1C2)COC(=O)C3(CC)OC(=O)N(C)CCOCCn1ccc2cc(-n3c(O)nnc3-c3cc(C(C)C)c(O)cc3O)ccc21 (stereo not drawn) [SDC-TRAP-0037]",
    "label": "Met"
  }
]

Moving on to the next compound.
For this compound, is measured Mouse (10 μM) % Remaining 1 h (37° C.)* 60% or higher? CCc1c2c(nc3ccc(OC(=O)N4CCN(Cc5ccc(-n6c(O)nnc6-c6cc(C(C)C)c(O)cc6O)cc5)CC4)cc13)-c1cc3c(c(=O)n1C2)COC(=O)C3(O)CC (stereo not drawn) [SDC-TRAP-0046]
Not met

----------
Assay: Chemical properties of SDC-TRAP-0063
Type: physicochemical
Conditions: aqueous buffer; In water (pH = 11.8*)
experimentalEndpoint: solubility

Please report the measured solubility for `CCc1c2c(nc3ccc(OC(=O)N4CCC(CCn5ccc6cc(-n7c(O)nnc7-c7cc(C(C)C)c(O)cc7O)ccc65)CC4)cc13)-c1cc3c(c(=O)n1C2)COC(=O)[C@]3(O)CC`
926 µg/mL

----------
Experiment: Solubility of SDC-TRAP-0063 (ganetespib placebo formulation, PEG-300)
Type: physicochemical
Settings: ganetespib placebo formulation, organic solvent or mixture, thermodynamic from solid, kinetic solubility in ganetespib placebo formulation; Lot6; 7 days
experimentalEndpoint: solubility at 7 days
Write the figure, then the unit, nothing else.

Give recorded solubility at 7 days. `CCc1c2c(nc3ccc(OC(=O)N4CCC(CCn5ccc6cc(-n7c(O)nnc7-c7cc(C(C)C)c(O)cc7O)ccc65)CC4)cc13)-c1cc3c(c(=O)n1C2)COC(=O)[C@]3(O)CC`
7320 µg/mL
